pIC50 for assorted compounds
- system name: HPK1 (Homo sapiens (Human))
- Sequence (Q92918 whole entry): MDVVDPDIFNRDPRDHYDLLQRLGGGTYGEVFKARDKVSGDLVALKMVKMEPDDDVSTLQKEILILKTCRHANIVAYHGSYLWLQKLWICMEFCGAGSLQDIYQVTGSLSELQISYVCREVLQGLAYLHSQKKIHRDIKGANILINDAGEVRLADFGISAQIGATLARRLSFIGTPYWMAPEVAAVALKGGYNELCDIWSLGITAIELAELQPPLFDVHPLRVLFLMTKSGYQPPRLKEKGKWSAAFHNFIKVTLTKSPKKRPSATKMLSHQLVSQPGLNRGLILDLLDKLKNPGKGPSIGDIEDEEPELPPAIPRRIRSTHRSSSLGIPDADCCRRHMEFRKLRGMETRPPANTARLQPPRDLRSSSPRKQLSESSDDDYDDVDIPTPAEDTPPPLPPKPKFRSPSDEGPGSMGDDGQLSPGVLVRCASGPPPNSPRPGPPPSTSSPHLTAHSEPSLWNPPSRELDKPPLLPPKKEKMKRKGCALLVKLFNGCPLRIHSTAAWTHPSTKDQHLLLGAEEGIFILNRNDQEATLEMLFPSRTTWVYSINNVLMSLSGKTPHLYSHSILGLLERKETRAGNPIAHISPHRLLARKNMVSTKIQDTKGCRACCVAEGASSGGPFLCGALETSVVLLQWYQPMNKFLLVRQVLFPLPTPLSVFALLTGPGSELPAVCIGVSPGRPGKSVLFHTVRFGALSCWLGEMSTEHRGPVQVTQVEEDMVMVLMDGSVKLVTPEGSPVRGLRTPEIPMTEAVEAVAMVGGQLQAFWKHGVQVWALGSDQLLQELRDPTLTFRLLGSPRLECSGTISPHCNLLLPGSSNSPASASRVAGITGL
pIC50: −log10 of the molar value.

Here is how some compounds turned out for pIC50.
Recorded result, C=CC(C)(O)C#Cc1cccc(COc2cc(-c3cnc(C4CCN(C)CC4)s3)cnc2N)c1 (centres unmarked) , pIC50: > 7.00

Recorded result, Nc1ncc(-c2cnc(C3CCNCC3)s2)cc1OCc1cccc(C#CC2(O)CC2)c1 , pIC50: > 7.00

Recorded result, CC(C)(O)C#Cc1cccc(COc2cc(-c3cnc(Oc4ccccc4)s3)cnc2N)c1 , pIC50: 6.00 to 7.00

Recorded result, CSc1ncc(-c2cnc(N)c(OCc3cccc(C#CC(C)(C)O)c3)c2)s1 , pIC50: > 7.00

Would you kindly look at the next entry?
Recorded result, Nc1ncc(-c2cnc(C3CCNCC3)s2)cc1OCc1cc(C#CC2(O)CC2)ccc1F , pIC50: > 7.00

----------
Below are IC50 values recorded for HPK1 (Homo sapiens (Human), UniProt Q92918).

Here is how some compounds turned out for IC50.
Let me check: CN1CCC(c2ccc(-c3cnc(N)c(OCc4ccncc4)c3)nc2)CC1 , system HPK1 (Homo sapiens (Human), UniProt Q92918), measured IC50 is 100 to 1000 nM

Let me check: Cc1ccc(C#CC(C)(C)O)cc1COc1cc(-c2cnc(C3CCN(C)CC3)s2)cnc1N , system HPK1 (Homo sapiens (Human), UniProt Q92918), measured IC50 is < 100 nM

Let me check: CN1CCN(C2CCN(c3ncc(-c4cnc(N)c(OCc5cccc(C#CC(C)(C)O)c5)c4)s3)CC2)CC1 , system HPK1 (Homo sapiens (Human), UniProt Q92918), measured IC50 is < 100 nM

Let me check: CC(C)c1ncc(-c2cnc(N)c(OCc3cc(C#CC(C)(C)O)cc(CN)c3)c2)s1 , system HPK1 (Homo sapiens (Human), UniProt Q92918), measured IC50 is < 100 nM

Let me check: CC(C)(O)C#Cc1cc(CN)cc(COc2cc(-c3cnc(C4CCOCC4)s3)cnc2N)c1 , system HPK1 (Homo sapiens (Human), UniProt Q92918), measured IC50 is < 100 nM

More entries:
Let me check: CN1CCC(c2ncc(-c3cnc(N)c(OCc4cncc(C#CC(C)(C)O)c4)c3)s2)CC1 , system HPK1 (Homo sapiens (Human), UniProt Q92918), measured IC50 is < 100 nM

Let me check: CC(C)c1ncc(-c2cnc(N)c(OCc3cc(C#CC(C)(C)O)ccc3CN)c2)s1 , system HPK1 (Homo sapiens (Human), UniProt Q92918), measured IC50 is < 100 nM

Let me check: CC(C)(O)C#Cc1cccc(COc2cc(-c3cnn(C4CCNCC4)c3)cnc2N)c1 , system HPK1 (Homo sapiens (Human), UniProt Q92918), measured IC50 is < 100 nM

Let me check: CN1CCC(n2cc(-c3cnc(N)c(OCc4cccc(C#CC(C)(C)O)c4)c3)cn2)CC1 , system HPK1 (Homo sapiens (Human), UniProt Q92918), measured IC50 is < 100 nM

Let me check: CC(C)(O)C#Cc1cccc(COc2cc(-c3cnc(C4CCCCC4)s3)cnc2N)c1 , system HPK1 (Homo sapiens (Human), UniProt Q92918), measured IC50 is 100 to 1000 nM

Let me check: CC1CN(c2ncc(-c3cnc(N)c(OCc4cccc(C#CC(C)(C)O)c4)c3)s2)CC(C)N1C (stereo not drawn) , system HPK1 (Homo sapiens (Human), UniProt Q92918), measured IC50 is < 100 nM

Let me check: CN1CCC(n2cc(-c3cnc(N)c(OCc4cccc(C#CC(C)(O)CF)c4)c3)cn2)CC1 (stereo not drawn) , system HPK1 (Homo sapiens (Human), UniProt Q92918), measured IC50 is < 100 nM
